# Protocol Summary: Cytotoxicity against HEK293 cells assessed as inhibition of cell growth at 40 uM incubated for 72 hrs by resazurin based fluorescence plate reader analysis relative to control
# Format: toxicity
# Test Context: human
Parameter Measured: inhibition at 72 h, 40 µM (%)
Field format: number, assumed %, no unit text.

inhibition at 72 h, 40 µM reported for this compound "CCc1nc(N)nc(N)c1-c1ccc(Cl)cc1" : 33.4

----------
# Test system: Plasmodium falciparum
# Protocol Summary: Antiplasmodial activity against Plasmodium falciparum 3D7 incubated for 72 hrs by DAPI staining based analysis
# Type: functional, organism-based
# Test Context: 3D7, 72 h
pIC50: −log10 of the molar value.
Everything with pIC50 lower than 8 is n; everything else, including exactly 8, is y.

Enquiry: Tell me whether pIC50 is at least 8 here: "C/C1=C\[C@@H]2[C@H](CC[C@@]3(C)Oc4c(c(O)c(C=O)c(O)c4C(=O)CC(C)C)C[C@@H]3CC1)C2(C)C"
Return: n

Enquiry: Tell me whether pIC50 is at least 8 here: "C/C1=C\[C@H]2[C@@H](CC[C@]3(C)Oc4c(C=O)c(O)c(C(=O)CC(C)C)c(O)c4C[C@H]3CC1)C2(C)C"
Return: n

Enquiry: Tell me whether pIC50 is at least 8 here: "COc1ccc(C[C@H](N)C(=O)N[C@H]2[C@@H](O)[C@H](n3cnc4c(N(C)C)ncnc43)O[C@@H]2CO)cc1"
Return: n

Enquiry: Tell me whether pIC50 is at least 8 here: "CCc1nc(N)nc(N)c1-c1ccc(Cl)cc1"
Return: n

Enquiry: Tell me whether pIC50 is at least 8 here: C[C@H]1[C@H](OC(=O)CCC(=O)O)O[C@@H]2O[C@@]3(C)CC[C@H]4[C@H](C)CC[C@@H]1[C@@]24OO3 [ARTESUNATE]
Return: y

Enquiry: Tell me whether pIC50 is at least 8 here: "C=C(C)[C@@H]1C=C2[C@@H](C)CC[C@@H](Cc3c(O)c(C=O)c(O)c(C(=O)CC(C)C)c3O)[C@]2(C)CC1"
Return: n
